Target: Ceramide glucosyltransferase (Mus musculus, UniProt O88693)
Sequence (O88693 whole entry): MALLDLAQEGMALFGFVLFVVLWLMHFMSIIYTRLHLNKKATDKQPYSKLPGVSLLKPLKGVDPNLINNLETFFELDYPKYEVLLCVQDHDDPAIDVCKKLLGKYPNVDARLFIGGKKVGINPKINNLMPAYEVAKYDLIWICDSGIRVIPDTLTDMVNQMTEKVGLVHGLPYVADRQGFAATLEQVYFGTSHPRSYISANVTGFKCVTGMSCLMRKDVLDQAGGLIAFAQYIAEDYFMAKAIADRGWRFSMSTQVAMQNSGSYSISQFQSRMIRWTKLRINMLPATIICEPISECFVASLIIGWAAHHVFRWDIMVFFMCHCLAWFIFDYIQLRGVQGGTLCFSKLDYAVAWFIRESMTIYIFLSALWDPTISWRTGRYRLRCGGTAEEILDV
Test: Inhibition of glucosylceramide synthase in mouse RAW cells preincubated with compound for 15 mins by in-situ enzyme inhibition assay
pIC50: −log10 of the molar value.
readout kind: pIC50

A = CCCCCCCCOCCCCCN1C[C@H](O)[C@@H](O)[C@H](O)[C@@H]1CO
B = CCCCCCCCN1C[C@H](O)[C@@H](O)[C@H](O)[C@H]1CO
Task: Between these two entries, A and B , state which has the higher pIC50. Answer by quoting the chosen item's label.
Result: A

a = CCCCCCCCN1C[C@H](O)[C@@H](O)[C@H](O)[C@@H]1CO
b = CCCCCCCOCCCCCN1C[C@H](O)[C@@H](O)[C@H](O)[C@H]1CO
c = CCCCCCN1C[C@H](O)[C@@H](O)[C@H](O)[C@@H]1CO
d = CCCCOCCCCCN1C[C@H](O)[C@@H](O)[C@H](O)[C@@H]1CO
Task: Put the compounds in ascending order of pIC50. I'd appreciate it if you listed the labels in the requested order.
Result: c, a, d, b

A = CCCCOCCCCCN1C[C@H](O)[C@@H](O)[C@H](O)[C@H]1CO
B = CCCCCCOCCCCCN1C[C@H](O)[C@@H](O)[C@H](O)[C@H]1CO
Task: Between A and B , which one has the lower reported pIC50 value? Answer by quoting the chosen item's label.
Result: A
(A: 5.40, B: 6.00)
